Attribute: IC50
subject_of_test: KRAS G12D (Homo sapiens, UniProt P01116, G12D)
Construct: Recombinant human KRAS G12D (aa 2-169, expressed in E. coli); His-tag (TEV cleavable) (N); KRAS G12D: not given
Sequence (P01116 2-169 G12D): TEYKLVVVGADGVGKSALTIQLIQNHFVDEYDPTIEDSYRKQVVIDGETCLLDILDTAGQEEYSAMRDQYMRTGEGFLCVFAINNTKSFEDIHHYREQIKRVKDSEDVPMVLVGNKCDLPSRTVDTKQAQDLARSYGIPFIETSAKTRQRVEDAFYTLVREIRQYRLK
method_summary: KRAS G12D/SOS1 Nucleotide Exchange Assay (SOS1-mediated Bodipy-GDP to GTP exchange)
experimental_parameters: rate constant method (plateau = 0), Bodipy-GDP/KRAS G12D as substrate, 0.5% DMSO, 30 min pre-incubation at RT
I only need the number, in nM, no unit after it.

The cases that follow already have their IC50 on record.
{"molecule": "Clc1cccc2cccc(-c3ccc4c(N5C[C@H]6CC[C@@H](C5)N6)nc(OCC56CCCN5CCC6)nc4n3)c12", "value_units": "nM", "IC50": 8600}
{"molecule": "C#Cc1c(F)ccc2cc(O)cc(-c3cnc4c(N5C[C@H]6CC[C@@H](C5)N6)nc(OC[C@@]56CCCN5C[C@H](F)C6)nc4c3)c12", "value_units": "nM", "IC50": 28}
{"molecule": "Oc1cc(-c2cnc3c(N4C[C@H]5CC[C@@H](C4)N5)nc(OCC45CCCN4CCC5)nc3c2)c2ccccc2c1", "value_units": "nM", "IC50": 35}

Requested read-out: IC50. Entry: Clc1cccc2cccc(-c3cnc4c(N5C[C@H]6CC[C@@H](C5)N6)nc(OCC56CCCN5CCC6)nc4c3)c12 610

Every entry's value here was drawn from patent US20250250286A1.
